- test_target: T1, Brn2 DNA-binding domain (BD-Brn2) (Mus musculus (B6), UniProt P31360 336-435)
- T1 sequence: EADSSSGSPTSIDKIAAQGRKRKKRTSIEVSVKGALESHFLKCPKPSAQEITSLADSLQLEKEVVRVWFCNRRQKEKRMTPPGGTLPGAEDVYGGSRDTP
- assay_name: EMSA; 10% glycerol, 20 mM HEPES pH 7.8, 45 mM KCl, 10 mM NaCl, 1 mM EDTA, 1 mM DTT, 0.2 ug/uL BSA, 0.1% NP-40, 50 ng poly-dIdC; 20 ng each GST protein; room temperature 30 min (heterodimers 4 C); 6% PAGE 0.25x TBE
- recorded_conditions: protein: recombinant; tags: GST (N-terminal, pGEX-6P-1); label: 32P-dCTP fill-in of the 5' (dG)5 overhangs of both strands (Methods; control probes are given with GGG)
reported_endpoint: binding result

{"columns": ["binder", "binding result"],
 "data": [
  ["9 (dsDNA) DNA 1: GGGGGTCCTGCCACTTGGGTTGCAGTGAGGACAATGAAATGAGCCCCC DNA 2: GGGGGCTCATTTCATTGTCCTCACTGCAACCCAAGTGGCAGGACCCCC", "no binding"],
  ["41 (dsDNA) DNA 1: GGGGGTTTGGAAAACAAAACATTAACCAAAATTTTCCCCC DNA 2: GGGGGAAAATTTTGGTTAATGTTTTGTTTTCCAAACCCCC", "no binding"],
  ["72 (dsDNA) DNA 1: GGGGGGTTTGTTTTTTAAGGAACTGTAATGAACAAATGTCAGGACCCCC DNA 2: GGGGGTCCTGACATTTGTTCATTACAGTTCCTTAAAAAACAAACCCCCC", "binds"],
  ["35 (dsDNA) DNA 1: GGGGGGTTTCTCTAATTAATAGACTTCATTGTTCAAAACTATTTTACATTTGTTCCCCC DNA 2: GGGGGAACAAATGTAAAATAGTTTTGAACAATGAAGTCTATTAATTAGAGAAACCCCCC", "binds"],
  ["95 (dsDNA) DNA 1: GGGGGGGTTTTCTTTTGTACACTTAATATCCGCTGGGGCCCCC DNA 2: GGGGGCCCCAGCGGATATTAAGTGTACAAAAGAAAACCCCCCC", "no binding"]
]}

// query Could you share which binding result value was measured for 114 (dsDNA) DNA 1: GGGGGTGATTTTTGCAAAATTTTGTTTTGTTTCTTGAGCCCCC DNA 2: GGGGGCTCAAGAAACAAAACAAAATTTTGCAAAAATCACCCCC ?
// result no binding

// query Could you share which binding result value was measured for 60 (dsDNA) DNA 1: GGGGGAATTTAATTTTGTCTCTACCTTTCACGCTTCTCCTTTGCATTTTCCCCCC DNA 2: GGGGGGAAAATGCAAAGGAGAAGCGTGAAAGGTAGAGACAAAATTAAATTCCCCC ?
// result binds

// query Could you share which binding result value was measured for 16a (dsDNA) DNA 1: GGGGGGTGAACCCTTTCAGATTTAGTGACGTAGCTTCACAAAGTGATTAACCCCC DNA 2: GGGGGTTAATCACTTTGTGAAGCTACGTCACTAAATCTGAAAGGGTTCACCCCCC ?
// result binds

// query Could you share which binding result value was measured for 61 (dsDNA) DNA 1: GGGGGTAAATTTTTCTAATCCTGACAAATCTCTTCACCCCC DNA 2: GGGGGTGAAGAGATTTGTCAGGATTAGAAAAATTTACCCCC ?
// result no binding

// query Could you share which binding result value was measured for 50 (dsDNA) DNA 1: GGGGGTTTGTAAGTTTGTACCATTTGGCCTCAGCCCCCCC DNA 2: GGGGGGGCTGAGGCCAAATGGTACAAACTTACAAACCCCC ?
// result no binding

// query Could you share which binding result value was measured for 65 (dsDNA) DNA 1: GGGGGGTACTTGGTGATAATTTCATTGTCCACATGCCCCCC DNA 2: GGGGGGCATGTGGACAATGAAATTATCACCAAGTACCCCCC ?
// result binds

// query Could you share which binding result value was measured for 75 (dsDNA) DNA 1: GGGGGGCTCTGGGTATAATTAACAATAAAATGCACCCCC DNA 2: GGGGGTGCATTTTATTGTTAATTATACCCAGAGCCCCCC ?
// result binds

// query Could you share which binding result value was measured for 21 (dsDNA) DNA 1: GGGGGCAGAATCATTTGTGTTTTCCCATTTTTGCCAGGGGCCCCC DNA 2: GGGGGCCCCTGGCAAAAATGGGAAAACACAAATGATTCTGCCCCC ?
// result no binding

// query Could you share which binding result value was measured for 110 (dsDNA) DNA 1: GGGGGTTTATTTATTTGTTTTATTTCTATTTTTCTTGGTGACCCCC DNA 2: GGGGGTCACCAAGAAAAATAGAAATAAAACAAATAAATAAACCCCC ?
// result no binding

// query Could you share which binding result value was measured for 106 (dsDNA) DNA 1: GGGGGGCTTCCCTAGAATTGGAGATACAAAGGGCTCTGCCCCC DNA 2: GGGGGCAGAGCCCTTTGTATCTCCAATTCTAGGGAAGCCCCCC ?
// result no binding

// query Could you share which binding result value was measured for 74 (dsDNA) DNA 1: GGGGGGACTTTCTTGGCGGATTTGGTAACGACAAAGTTAGGATCCCCC DNA 2: GGGGGATCCTAACTTTGTCGTTACCAAATCCGCCAAGAAAGTCCCCCC ?
// result no binding

// query Could you share which binding result value was measured for 10 (dsDNA) DNA 1: GGGGGACACACACACAAAGATTTATTTATTCATTTAATCCCCC DNA 2: GGGGGATTAAATGAATAAATAAATCTTTGTGTGTGTGTCCCCC ?
// result binds

// query Could you share which binding result value was measured for 3 (dsDNA) DNA 1: GGGGGACCTATACTTTGTTTTTATTGCCTAGTAATCCCCC DNA 2: GGGGGATTACTAGGCAATAAAAACAAAGTATAGGTCCCCC ?
// result no binding
